Where these numbers come from: patent US7053055B2

Entries and their half-life
# Assay Text: Intramolecular cyclisation (stability) in 0.1 M HEPES buffer quantified by UV spectrometry
# Type: physicochemical
# Assay Context: pH=7.6, 25° C.

# Compound, half-life / min
rows = [
    ("CC(C)C(N)C(=O)N1CCCC1C(=O)C[n+]1ccccc1.[Cl-] (centres unmarked)", 13.3),
    ("NC(Cc1ccccc1)C(=O)N1CCCC1C(=O)C[n+]1ccccc1.[Cl-] (centres unmarked)", 9.6),
]
